Source listed as the Immune Epitope Database (IEDB).

molecular target: HLA-B*51:01; assay: IEDB peptide-MHC binding, purified MHC/competitive/radioactivity; filed as Kd, often an IC50 or EC50 that approximates it; bounds were set here for any values at or beyond the usual limits of such assays; conditions: source organism: Hepacivirus hominis
readoutType: Kd

# lookup: HLA-B*51:01 Kd, key = `HSKKKCDDL`
≥ 51.9 µM

###

target: HLA-A*03:01; test: IEDB peptide-MHC binding, purified MHC/direct/fluorescence; filed as Kd, often an IC50 or EC50 that approximates it; bounds were set here for any values at or beyond the usual limits of such assays; settings: source organism: Cryptosporidium hominis
readoutType: Kd

Determine its reported Kd: `FMKSRVYSI`
≥ 20 µM
